- System: SK-OV-3 ovarian
- protocol.details: NCI-60 one-dose screen, 48 h
- reported.conditions: 10 µM unless noted
Compounds without any hit were thinned out: in the full panel of roughly 83,000, 20% have a hit. Active and inactive are the calls of the source. Rule for the calls: active = growth percent below 10; inactive = the rest.
// one of active, inactive, no free text

> print(dat)
                                   compound  classification
1  C#COc1cccc(Nc2ncnc3ncc(NC(=O)CCl)cc23)c1        inactive
2  Cc1cnc(C(=O)NNc2nc3sc4c(c3c(=O)n2C)C(C)CCC4)cn1 (stereo not given)        inactive
3  O=C(/C=C/c1cn(-c2ccccc2)nc1-c1ccc([N+](=O)[O-])cc1)c1ccc(Cl)cc1        inactive
4  COc1cc(C(=O)n2nc(N3CCN(C)CC3)c3cc(N)ccc32)cc(OC)c1OC        inactive

Q: Lab log entry: CCN(CC)CCOc1ccc(C(=C(C)c2ccc(Cl)cc2)c2ccc(OCCN(CC)CC)cc2)cc1 — outcome as called in the assay?
A: active
